- Test system: SirT1
- method: Primary AlphaLISA screening assay: SirT1 levels in N2a cells stably transfected with ApoE4
- Format: cell-based, mouse
- condition_parameters: primary screening assay, ApoE4 cells
assay_endpoint: Primary Assay (SrT1 increase)

compound	assay_endpoint	reported_value
CC(C)(Cc1ccc(Cl)cc1)OC(=O)CN [Compound 7]	Primary Assay (SrT1 increase)	II (activity II 10-30%)
CC(C)C(N)C(=O)OC(C)(C)Cc1ccc(Cl)cc1 (stereo not shown) [Compound 8]	Primary Assay (SrT1 increase)	II (activity II 10-30%)
CC(N)C(=O)OC(C)(C)CCc1ccc(Cl)cc1 (stereo not shown) [Compound 12]	Primary Assay (SrT1 increase)	II (activity II 10-30%)
CC(N)C(=O)OC1(Cc2ccc(Cl)cc2)CCCCC1 (stereo not shown) [Compound 10]	Primary Assay (SrT1 increase)	I (activity I < 10%)

Would you mind telling me what Primary Assay (SrT1 increase) value was observed for CC(N)C(=O)OC1(Cc2ccc(Cl)cc2)CCC1 (stereo not shown) [Compound 9] ? I (activity I < 10%)

Next: CCC(C)C(N)C(=O)OC(C)(C)Cc1ccc(Cl)cc1 (stereo not shown) [Compound 11] II (activity II 10-30%)

Repeat with CC(C)(Cc1ccc(Cl)cc1)OC(=O)C1CCCCN1 (stereo not shown) [Compound 19] II (activity II 10-30%)

What do you have for CC(C)(Cc1ccc(Cl)cc1)OC(=O)C(N)Cc1ccccc1 (stereo not shown) [Compound 2] ? I (activity I < 10%)

Please answer likewise for CC(N)C(=O)OC(C)(C)Cc1ccc(F)cc1 (stereo not shown) [Compound 4] II (activity II 10-30%)
